Tgt: DYRK1A (Homo sapiens, UniProt Q13627)
Construct: purchased Eurofins; host or cells: E. coli BL21-derived (T7 phage display) or HEK-293
Method Summary: HiBiT split luciferase assay of targeted degradation of DYRK1A in Flp-In T-REx 293 cells
Assay type: cell-based
Assay Conditions: 300 nM compound, 24 h, HiBiT-tagged DYRK1A in Flp-In T-REx 293 cells, normalized to vehicle; read-out: Relative Degradation at 300 nM DYRK1A
Observable: inhibition at 0.3 µM

Given Cc1nc2ccc(-c3ccnc(N)c3)nc2n1-c1ccc(N2C3CCC2CN(CC#Cc2ccc(N4CCC(C(=O)N5CCC(n6cc(CNc7cccc8c7C(=O)N(C7CCC(=O)NC7=O)C8=O)cn6)CC5)CC4)nc2)C3)c(F)c1 (stereo not drawn) , respond with its inhibition at 0.3 µM.
30 to 60%

Give the value of inhibition at 0.3 µM reported for the following: Cc1nc2ccc(-c3ccnc(N)c3)nc2n1-c1ccc(N2CCN(C(=O)CCN3CCN(Cc4ccc(CNc5cccc6c5CN(C5CCC(=O)NC5=O)C6=O)cc4)CC3)CC2)c(F)c1 (stereo not drawn)
< 30%

State its inhibition at 0.3 µM for this compound: Cc1nc2ccc(-c3ccnc(N)c3)nc2n1-c1ccc(N2CCN(CC#Cc3cncc(N4CCC(C(=O)N5CCC(n6cc(CNc7cccc8c7C(=O)N(C7CCC(=O)NC7=O)C8=O)cn6)CC5)CC4)n3)CC2)c(F)c1 (stereo not drawn)
> 60%

Specify measured inhibition at 0.3 µM for Cc1nc2ccc(-c3ccnc(N)c3)nc2n1-c1ccc(N2CCN(C(=O)CCCCN3CCN(Cc4ccc(CNc5cccc6c5CN(C5CCC(=O)NC5=O)C6=O)cc4)CC3)CC2)c(F)c1 (stereo not drawn) .
< 30%

Specify inhibition at 0.3 µM for Cc1nc2ccc(-c3ccnc(N)c3)nc2n1-c1ccc(N2CCN(CCOCCOCCOCCC(=O)NC3CN(c4ccc5c(c4)C(=O)N(C4CCC(=O)NC4=O)C5=O)C3)CC2)c(F)c1 (stereo not drawn) and stop.
< 30%

Tell us which inhibition at 0.3 µM value is on record for Cc1nc2ccc(-c3ccnc(N)c3)nc2n1-c1ccc(N2CCN(CCOCCOCCOCCOCCNc3cccc4c3C(=O)N(C3CCC(=O)NC3=O)C4=O)CC2)c(F)c1 (stereo not drawn)
30 to 60%

Please supply the value of reported inhibition at 0.3 µM for the item Cc1nc2ccc(-c3ccnc(N)c3)nc2n1-c1ccc(N2CCN(CC#Cc3ccc(N4CCC(C(=O)N5CCC(n6cc(CNc7cccc8c7C(=O)N(C7CCC(=O)N(C)C7=O)C8=O)cn6)CC5)CC4)nc3)CC2)c(F)c1 (stereo not drawn)
< 30%

Identify measured inhibition at 0.3 µM corresponding to Cc1nc2ccc(-c3ccnc(N)c3)nc2n1-c1cc(Cl)c(N2CCN(CC#Cc3ccc(N4CCC(C(=O)N5CCC(n6cc(CNc7cccc8c7C(=O)N(C7CCC(=O)NC7=O)C8=O)cn6)CC5)CC4)nc3)CC2)c(Cl)c1 (stereo not drawn)
> 60%

Continuing:
Supply inhibition at 0.3 µM value. Item: Cc1nc2ccc(-c3ccnc(N)c3)nc2n1-c1ccc(N2CCN(C(=O)CCCN3CCC(n4cc(CNc5cccc6c5C(=O)N(C5CCC(=O)NC5=O)C6=O)cn4)CC3)CC2)c(F)c1 (stereo not drawn)
30 to 60%

Read the entry Cc1nc2ccc(-c3ccnc(N)c3)nc2n1-c1ccc(N2C[C@H]3CN(CC#Cc4ccc(N5CCC(C(=O)N6CCC(n7cc(CNc8cccc9c8C(=O)N(C8CCC(=O)NC8=O)C9=O)cn7)CC6)CC5)nc4)C[C@H]3C2)c(F)c1 (stereo partly drawn) and write its reported inhibition at 0.3 µM.
30 to 60%

Identify the reported inhibition at 0.3 µM for the following entry. Cc1nc2ccc(-c3ccnc(N)c3)nc2n1-c1ccc(N2CCN(c3ccc(N4CCC(C(=O)N5CCC(n6cc(CNc7cccc8c7C(=O)N(C7CCC(=O)NC7=O)C8=O)cn6)CC5)CC4)nc3)CC2)c(F)c1 (stereo not drawn)
> 60%

Quote inhibition at 0.3 µM reported for Cc1nc2ccc(-c3ccnc(N)c3)nc2n1-c1ccc(N2CCN(CCOCCOCCOCCOCCNc3cc4c(cc3F)C(=O)N(C3CCC(=O)NC3=O)C4=O)CC2)c(F)c1 (stereo not drawn) please.
< 30%

For the compound Cc1nc2ccc(-c3ccnc(N)c3)nc2n1-c1ccc(N2CCN(CCOCCOCCC(=O)N3CCN(Cc4ccc(CNc5cccc6c5CN(C5CCC(=O)NC5=O)C6=O)cc4)CC3)CC2)c(F)c1 (stereo not drawn) , give its reported inhibition at 0.3 µM.
30 to 60%

Indicate its recorded inhibition at 0.3 µM; the compound in question is `Cc1ncsc1-c1ccc(CNC(=O)[C@@H]2C[C@@H](O)CN2C(=O)[C@@H](NC(=O)CCOCCOCCN2CCN(c3ccc(-n4c(C)nc5ccc(-c6ccnc(N)c6)nc54)cc3F)CC2)C(C)(C)C)cc1`
< 30%

Could you please provide reported inhibition at 0.3 µM for Cc1nc2ccc(-c3ccnc(N)c3)nc2n1-c1ccc(N2CCN(CC#Cc3ccc(C4(C(=O)N5CCC(n6cc(CNc7cccc8c7C(=O)N(C7CCC(=O)NC7=O)C8=O)cn6)CC5)CCC4)cc3)CC2)c(F)c1 (stereo not drawn) ? Thanks!
> 60%

Return value of inhibition at 0.3 µM for input Cc1nc2ccc(-c3ccnc(N)c3)nc2n1-c1ccc(N2CCN(C(=O)CCCCCN3CCN(Cc4ccc(CNc5cccc6c5CN(C5CCC(=O)NC5=O)C6=O)cc4)CC3)CC2)c(F)c1 (stereo not drawn) , no commentary.
< 30%

Specify measured inhibition at 0.3 µM for Cc1nc2ccc(-c3ccnc(N)c3)nc2n1-c1ccc(N2CCN(CC#Cc3ccc(N4CCC(C(=O)N5CCC(n6cc(CNc7cccc8c7C(=O)N(C7CCC(=O)NC7=O)C8=O)cn6)CC5)CC4)nc3)CC2)c(F)c1 (stereo not drawn) .
> 60%

Provide one value: measured inhibition at 0.3 µM of Cc1nc2ccc(-c3ccnc(N)c3)nc2n1-c1ccc(N2CCN(CCOCCOCCNc3cccc4c3C(=O)N(C3CCC(=O)NC3=O)C4=O)CC2)c(F)c1 (stereo not drawn)
30 to 60%

For the compound Cc1nc2ccc(-c3ccnc(N)c3)nc2n1-c1ccc(N2CCN(C(=O)CCCN3CCN(Cc4ccc(CNc5cccc6c5CN(C5CCC(=O)NC5=O)C6=O)cc4)CC3)CC2)c(F)c1 (stereo not drawn) , give its measured inhibition at 0.3 µM value.
30 to 60%

Quote inhibition at 0.3 µM reported for Cc1nc2ccc(-c3ccnc(N)c3)nc2n1-c1ccc(N2C[C@@H]3C[C@H]2CN3CC#Cc2ccc(N3CCC(C(=O)N4CCC(n5cc(CNc6cccc7c6C(=O)N(C6CCC(=O)NC6=O)C7=O)cn5)CC4)CC3)nc2)c(F)c1 (stereo partly drawn) please.
30 to 60%

Return inhibition at 0.3 µM (reported value) for this compound: Cc1nc2ccc(-c3ccnc(N)c3)nc2n1-c1cc(F)c(N2CCN(CC#Cc3ccc(N4CCC(C(=O)N5CCC(n6cc(CNc7cccc8c7C(=O)N(C7CCC(=O)NC7=O)C8=O)cn6)CC5)CC4)nc3)CC2)c(F)c1 (stereo not drawn)
> 60%

* * *

Tgt: DYRK1B (Homo sapiens, UniProt Q9Y463)
Construct: purchased Eurofins; host or cells: E. coli BL21-derived (T7 phage display) or HEK-293
Sequence (Q9Y463 whole entry, species assumed): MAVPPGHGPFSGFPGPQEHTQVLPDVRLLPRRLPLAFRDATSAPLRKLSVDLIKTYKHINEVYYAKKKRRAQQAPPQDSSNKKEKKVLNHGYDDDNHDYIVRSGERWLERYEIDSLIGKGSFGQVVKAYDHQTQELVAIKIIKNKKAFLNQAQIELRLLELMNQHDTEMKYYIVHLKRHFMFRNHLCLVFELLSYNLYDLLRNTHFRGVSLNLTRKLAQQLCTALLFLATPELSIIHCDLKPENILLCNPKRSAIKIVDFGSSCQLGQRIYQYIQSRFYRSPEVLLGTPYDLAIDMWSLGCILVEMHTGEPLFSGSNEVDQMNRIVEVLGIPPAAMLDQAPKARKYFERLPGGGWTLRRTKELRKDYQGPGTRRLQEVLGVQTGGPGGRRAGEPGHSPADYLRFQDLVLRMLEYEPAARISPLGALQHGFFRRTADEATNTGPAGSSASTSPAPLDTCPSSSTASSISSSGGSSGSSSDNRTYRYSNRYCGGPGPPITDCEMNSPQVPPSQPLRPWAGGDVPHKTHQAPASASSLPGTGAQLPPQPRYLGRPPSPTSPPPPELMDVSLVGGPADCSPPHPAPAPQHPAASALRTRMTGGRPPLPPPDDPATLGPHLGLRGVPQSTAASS
Method Summary: HiBiT split luciferase assay of targeted degradation of DYRK1B in Flp-In T-REx 293 cells
Format: cell-based
Assay Conditions: 300 nM compound, 24 h, HiBiT-tagged DYRK1B in Flp-In T-REx 293 cells, normalized to vehicle; read-out: Relative Degradation at 300 nM DYRK1B
Source text: The Flp-In T-REx 293 Cell Line and the pcDNA5/FRT/TO vector (Invitrogen) were used to generate stable cell clones for tetracyclin-inducible expression of DYRK1A and DYRK1B. […] DYRK1 constructs were designed to contain a C-terminal HiBiT tag for quantitative detection of HiBiT-tagged proteins in cellular lysates with the help a split luciferase assay (Nano-Glo HiBiT Lytic Detection System, Promega). […] Luminescence was quantified in an Orion Microplate luminometer (Berthold Detection System, Germany). […]
List of inhibition at 0.3 µM values.

Give measured inhibition at 0.3 µM for Cc1nc2ccc(-c3ccnc(N)c3)nc2n1-c1ccc(N2C[C@@H]3C[C@H]2CN3CC#Cc2ccc(N3CCC(C(=O)N4CCC(n5cc(CNc6cccc7c6C(=O)N(C6CCC(=O)NC6=O)C7=O)cn5)CC4)CC3)nc2)c(F)c1 (some centres unmarked) [Compound 20] (DYRK1B (Homo sapiens, UniProt Q9Y463)).
< 30%

Report the value of inhibition at 0.3 µM obtained on DYRK1B (Homo sapiens, UniProt Q9Y463) for Cc1nc2ccc(-c3ccnc(N)c3)nc2n1-c1ccc(N2CCN(CC#Cc3cncc(N4CCC(C(=O)N5CCC(n6cc(CNc7cccc8c7C(=O)N(C7CCC(=O)NC7=O)C8=O)cn6)CC5)CC4)n3)CC2)c(F)c1 (centres unmarked) [Compound 32] .
> 50%

Lab note: record inhibition at 0.3 µM of Cc1nc2ccc(-c3ccnc(N)c3)nc2n1-c1ccc(N2CCN(CCOCCOCCNc3cccc4c3C(=O)N(C3CCC(=O)NC3=O)C4=O)CC2)c(F)c1 (centres unmarked) [Compound 5] tested on DYRK1B (Homo sapiens, UniProt Q9Y463).
< 30%

Give reported inhibition at 0.3 µM for Cc1nc2ccc(-c3ccnc(N)c3)nc2n1-c1cc(Cl)c(N2CCN(CC#Cc3ccc(N4CCC(C(=O)N5CCC(n6cc(CNc7cccc8c7C(=O)N(C7CCC(=O)NC7=O)C8=O)cn6)CC5)CC4)nc3)CC2)c(Cl)c1 (centres unmarked) [Compound 27] (DYRK1B (Homo sapiens, UniProt Q9Y463))
< 30%

Could you now consider this next compound?
State recorded inhibition at 0.3 µM with DYRK1B (Homo sapiens, UniProt Q9Y463), entry Cc1nc2ccc(-c3ccnc(N)c3)nc2n1-c1ccc(N2CCN(CC#Cc3ccc(N4CCC(C(=O)N5CCC(n6cc(CNc7cccc8c7C(=O)N(C7CCC(=O)NC7=O)C8=O)cn6)CC5)CC4)nc3)CC2)c(F)c1 (centres unmarked) [Compound 18] , no comment.
> 50%
